# systemUnderTest: UniProt:Q96KS0
# Sequence (Q96KS0 whole entry): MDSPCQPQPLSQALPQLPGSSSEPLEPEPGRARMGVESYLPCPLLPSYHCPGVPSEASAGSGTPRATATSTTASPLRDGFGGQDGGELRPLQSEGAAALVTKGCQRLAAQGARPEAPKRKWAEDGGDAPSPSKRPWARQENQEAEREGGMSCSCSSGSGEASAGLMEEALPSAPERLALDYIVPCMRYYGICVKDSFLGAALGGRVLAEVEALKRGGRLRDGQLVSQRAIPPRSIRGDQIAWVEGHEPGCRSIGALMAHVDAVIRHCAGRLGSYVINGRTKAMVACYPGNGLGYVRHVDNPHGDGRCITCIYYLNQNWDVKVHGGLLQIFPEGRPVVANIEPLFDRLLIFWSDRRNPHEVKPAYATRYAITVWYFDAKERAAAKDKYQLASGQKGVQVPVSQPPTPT
# protocolDetails: HIF-PH assay (14CO2 capture), PHD1 enzyme inhibition
# Assay type: biochemical
# measurementContext: Table 1; individual measurement; read-out: IC50 (μM) PHD1
readoutType: IC50 (µM)

- compound: "N#Cc1nc(C(=O)NCC(C(=O)O)c2ccc(F)cc2)c(O)c2ccc(Oc3ccccc3)cc12 (centres unmarked) [Compound 181]"
  IC50 (µM): 1.45
- compound: "CC(C)CC(CNC(=O)c1nc(C#N)c2cc(Oc3ccccc3)ccc2c1O)CC(=O)O (centres unmarked) [Compound 183]"
  IC50 (µM): 1.63
- compound: "N#Cc1nc(C(=O)NCC[C@H](N)C(=O)O)c(O)c2ccc(Oc3ccccc3)cc12 [Compound 45]"
  IC50 (µM): 1.41
- compound: "CC(CC(=O)O)NC(=O)c1nc(C#N)c2cc(Oc3ccccc3)ccc2c1O (centres unmarked) [Compound 11]"
  IC50 (µM): 1.37

a. N#Cc1nc(C(=O)NC(CC(=O)O)c2ccccc2)c(O)c2ccc(Oc3ccccc3)cc12 (centres unmarked) [Compound 91]
b. N#Cc1nc(C(=O)NCC(C(=O)O)C2CC2)c(O)c2ccc(Oc3ccccc3)cc12 (centres unmarked) [Compound 166]
c. N#Cc1nc(C(=O)NCCCCC(=O)O)c(O)c2ccc(Oc3ccc(F)cc3Cl)cc12 [Compound 98]
d. CCNC(=O)N[C@H](CCNC(=O)c1nc(C#N)c2cc(Oc3ccccc3)ccc2c1O)C(=O)O [Compound 52]
Prompt line: Place the items in sequence of falling IC50. API: response body holds the labels in the requested order.
Response line: a, d, b, c
(a: 1.91 µM, d: 1.33 µM, b: 0.42 µM, c: 0.27 µM)
